Tested on: TK-10 renal
Assay: NCI-60 one-dose screen, 48 h (100 = growth as untreated, 0 = no growth, -100 = all killed)
Conditions: 10 µM unless noted
Protocol: Growth inhibition of the TK-10 human tumor cell line is measured as a screen for anti-cancer activity. Cells are grown in 96 well plates and exposed to the test compound for 48 hours. Compounds are tested at a single concentration, which is 10^-5 M for most compounds. The reported endpoint is percent growth (GI% or GIPRCNT), where numbers from 0 - 100% represent growth inhibition, and numbers from -100% - 0 represent cell death. For example, a value of 40 represents 60% growth inhibition. […]
This is part of a sample that, as a whole, favours compounds with a hit. Of some 83,000 tested, about 20% had one in any assay. Active and inactive are the calls of the source. The calls were made as follows: active = growth percent below 10; inactive = the rest.
Examples of compounds with documented growth follow.

Look over these answered cases.
- compound: "CCC1C(=O)COC1=O (stereo not given)"
  assayed.system: "TK-10 renal"
  reported.property: "growth"
  recorded.value: "90.5% (inactive)"
- compound: "Cc1ccc(-c2nn(Cc3cn(-c4cc(C)nc5ccccc45)nn3)c3ncnc(N)c23)cc1"
  assayed.system: "TK-10 renal"
  reported.property: "growth"
  recorded.value: "31.8% (inactive)"
- compound: "Cn1c(=O)c2c(ncn2CC(=O)Nc2ccc(S(N)(=O)=O)cc2)n(C)c1=O"
  assayed.system: "TK-10 renal"
  reported.property: "growth"
  recorded.value: "91.8% (inactive)"

Input: // lookup growth for "Oc1cccc2ccc(N/N=C/c3cc(CN4CCCCC4)c(O)c4ncccc34)nc12"
Output: 32.5% (inactive)

Input: Another compound to check: CC(=O)N1N=C(c2ccc(C)cc2)CC1c1ccc(Oc2ccc(Br)cc2)cc1 (stereo not given)
Output: 71.1% (inactive)

Input: Another compound to check: "COc1ccc(C2=NN(c3nc(-c4ccc(OC)cc4)c(C#N)c(=O)n3C)C(=O)CC2)cc1"
Output: 107% (inactive)

Input: Another compound to check: "Cc1cc(N2CCN(C)CC2)nc(N(CCNc2ccnc3cc(Cl)ccc23)Cc2ccco2)n1"
Output: 105% (inactive)

Input: Another compound to check: "COc1cc(C(=O)/C=C/c2cc(-c3ccc4c(c3)OCO4)n[nH]2)cc(OC)c1OC"
Output: 67% (inactive)

Input: Another compound to check: O=C1c2ccccc2NC(c2cn(-c3ccccc3)nc2-c2cccnc2)N1Cc1ccccc1 (stereo not given)
Output: 105% (inactive)

Input: Another compound to check: CC1(C)c2ccccc2C(=O)C1(Br)Cc1ccccc1 (stereo not given)
Output: 105% (inactive)

* * *

Test system: HCT-116 colon
Assay: NCI-60 one-dose screen, 48 h
Settings: 10 µM unless noted
Compounds without any hit were thinned out: in the full panel of roughly 83,000, 20% have a hit. Active and inactive are the calls of the source. Rule for the calls: active = growth percent below 10; inactive = the rest.
Answer with one of the outcomes active, inactive

Worked set:
- molecule: "Cn1c(=O)c2c(ncn2CCC(=O)Nc2ccc(F)cc2)n(C)c1=O"
  assigned.label: "inactive"
- molecule: "CC(C)=CCC[C@](C)(O)[C@H]1CC[C@]2(C)[C@@H]1CC[C@@H]1[C@@]3(C)C/C(=C/c4ccc(Br)cc4)C(=O)C(C)(C)[C@@H]3CC[C@]12C"
  assigned.label: "inactive"
- molecule: "CC1(C)CC[C@]2(CO)CC[C@]3(C)C(=CC[C@@H]4[C@@]5(C)CC[C@H](NCO)C(C)(C)[C@@H]5CC[C@]43C)[C@@H]2C1"
  assigned.label: "active"

Input: Please indicate how the test categorized "CC(C)(C)CC(C)(C)c1ccc(OCCOCC[N+](C)(C)CC(=O)[O-])cc1" .
Output: inactive

Input: Another molecule to check: "Oc1ccc(Nc2ccccc2)cc1"
Output: inactive

Input: Another molecule to check: Nc1c2c(nc3ccc(Cl)cc13)CC(c1ccc(O)cc1)CC2=O (centres undefined)
Output: inactive

Input: Another molecule to check: "CC(=O)OC[C@]12CC[C@@H](/C(C)=N/O)[C@@H]1[C@H]1CC[C@@H]3[C@@]4(C)CCCNC(C)(C)[C@@H]4CC[C@@]3(C)[C@]1(C)CC2"
Output: inactive

Input: Another molecule to check: COC(=O)C(Cc1ccccc1)n1cc(COc2nc(Cl)nc(Nc3ccc(Cl)cc3)n2)nn1 (centres undefined)
Output: inactive

Input: Another molecule to check: "CCc1cccc(CC)c1NC(=O)c1sc2nc3c(cc2c1N)CCCC3"
Output: inactive
